test: NCI Yeast Anticancer Drug Screen. Data for the cln2 rad14 strain (AID 165);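 note: 0% = growth equal to vehicle treated cultures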; details: S. cerevisiae cln2 rad14 strain, at 50.0 µM
Compounds without any hit were thinned out: in the full panel of roughly 79,000, 15% have a hit. Calls of active or inactive are those of the source. Cut-off read from the data, not from the text of the source: active = growth inhibition above about 70%; inactive = the rest.
Classes used: y = active, n = inactive

MOLECULE: CC1=CC(C)(C)N=C2SC(c3ccc(N)cc3)=NN12
LABEL: n
//
MOLECULE: CC(=O)OC1C(=O)OCC23CCC(C)=CC2OC2CC(OC(=O)/C=C/C=C/C(=O)OCCC1C)C3(C)C21CO1 (stereo not drawn)
LABEL: n
//
MOLECULE: COC(=O)c1ccccc1/C=C1\Cc2ccc3c(c2C1=O)CCCC3
LABEL: n
//
MOLECULE: O=C1CSSCC(=O)NCCCN1
LABEL: n
//
MOLECULE: Nc1cc(S(=O)(=O)O)nc(N)[n+]1[O-]
LABEL: n
//
MOLECULE: O=c1[nH]c2ccccc2c(N=Cc2ccccc2)c1-c1ccccc1
LABEL: n
//
MOLECULE: Oc1c(Br)cc(CN(Cc2cc(Br)c(O)c(Br)c2)C2CCCCC2)cc1Br
LABEL: n
//
MOLECULE: CC(=O)NCCc1ccc(C(=O)O)cc1
LABEL: n
//
MOLECULE: COc1ccc2c(c1)C13CCCC(C)(C(=O)NC1)C3CC2 (stereo not drawn)
LABEL: n
//
MOLECULE: Cc1cc2nc(NN)[nH]c2cc1C
LABEL: n
//
MOLECULE: Cc1ccc(-c2c(C#N)c(-c3ccccc3)n(NS(=O)(=O)c3ccccc3)c(=O)c2C#N)cc1
LABEL: n
//
MOLECULE: CCOC(=O)c1c(O)csc1C
LABEL: n
//
MOLECULE: COC(=O)C(=O)[C@@H](O)[C@H](O)[C@@H](O)CO
LABEL: n
//
MOLECULE: COc1ccc(/C=C2\C(=O)N(C(=O)c3ccc(NC(C)=O)cc3)N=C2C)cc1
LABEL: n
//
MOLECULE: O=S(=O)(O)c1ccc(O)c2ncccc12
LABEL: n
//
MOLECULE: CCOC(=O)CC(O)(c1ccccc1)c1ccccc1
LABEL: n
//
MOLECULE: C1CSCC2(COC2)CSCCSCC2(COC2)CS1
LABEL: n
//
MOLECULE: CC(=O)OC1CCCC2CCCC21 (stereo not drawn)
LABEL: n
//
MOLECULE: N=C1C=Cc2ccccc2/C1=N/N=c1/ccccn1O
LABEL: n
//
MOLECULE: OCCOc1ccccc1-c1ccccc1
LABEL: n
//
MOLECULE: O=C(OCCCCO)c1cc([N+](=O)[O-])cc([N+](=O)[O-])c1
LABEL: n
//
MOLECULE: N#Cc1c(-c2ccccc2)cc(-c2ccccc2)n(C2OCC(O)C(O)C2O)c1=S (stereo not drawn)
LABEL: n
//
MOLECULE: CC12CCC=CC1=CC(=O)CC2 (stereo not drawn)
LABEL: n
//
MOLECULE: O=C(Nc1ccc2c(c1)OCO2)O/N=C\c1ccccn1
LABEL: n
//
MOLECULE: COc1ccc(N2C=Nn3c(nc4sc5c(c4c3=O)CCCC5)C2)cc1
LABEL: n
//
MOLECULE: O=C(O)CCC1CCc2cccc(O)c2C1=O (stereo not drawn)
LABEL: n
//
MOLECULE: Cn1c(=O)c2c(nc(NCCNc3nc4c(c(=O)n(C)c(=O)n4C)n3C)n2C)n(C)c1=O
LABEL: n
//
MOLECULE: CN(CC(=O)O)c1ncc2c(n1)-c1ccccc1OC2c1ccccc1 (stereo not drawn)
LABEL: n
//
MOLECULE: C=C/C=N/Nc1ccc([N+](=O)[O-])cc1[N+](=O)[O-]
LABEL: n
//
MOLECULE: C/C=C\C=N\NC(=O)C(=O)N/N=C/C=C\C
LABEL: n
//
MOLECULE: CSc1nc2ccc(NCn3c(=O)sc4cc(Br)ccc43)cc2s1
LABEL: n
//
MOLECULE: CC(=O)OC1C(O)C(C)OC(OC2C(C)OC(OC(=O)[C@@H]3CC[C@@H]4[C@H](C3)OC3(C[C@@H](OC(=O)/C=C/c5ccccc5)[C@@H](C)CO3)[C@@]43CO3)C(O)C2OC(C)=O)C1O (stereo partly drawn)
LABEL: y
//
MOLECULE: c1ccc2c(c1)ncc1cc3c(cc12)[nH]c1ccccc13
LABEL: n
//
MOLECULE: CCOC(=O)NOC1CCCCO1 (stereo not drawn)
LABEL: n
//
MOLECULE: CCOC(=O)c1cccc2ncccc12
LABEL: n
//
MOLECULE: Cc1ccc(SC(F)(F)C(F)C(F)(F)F)cc1 (stereo not drawn)
LABEL: n
//
MOLECULE: O=C(NC(=O)c1ccccc1)OC(c1ccccc1)C1CO1 (stereo not drawn)
LABEL: n
//
MOLECULE: O=c1n(-c2ccccc2)c(=O)n2c(-c3ccccc3)c(-c3ccccc3)n12
LABEL: n
//
MOLECULE: COc1ccc(/C(=C/n2ccnc2)C(=O)c2ccc(OC)c(OC)c2)cc1
LABEL: n
//
MOLECULE: Cc1cc(Cl)c2ccc(Cl)c(C)c2n1
LABEL: n
//
MOLECULE: O=C(NC(=S)OC1CCCC1OC(=S)NC(=O)c1ccccc1)c1ccccc1 (stereo not drawn)
LABEL: n
//
MOLECULE: C=C(CC(=O)OC)C(=O)OC
LABEL: n
//
MOLECULE: CCCCS(=O)(=O)c1ccc(Cl)cc1
LABEL: n
//
MOLECULE: NC(=S)NO
LABEL: n
//
MOLECULE: COC(=O)C1(Cc2ccccc2)Cc2ccccc2C1
LABEL: n
//
MOLECULE: CC1CCC(=O)N1C (stereo not drawn)
LABEL: n
//
MOLECULE: O=C1C2=C(Nc3cc([N+](=O)[O-])ccc3N2)OC1c1ccc2c(c1)OCO2 (stereo not drawn)
LABEL: n
//
MOLECULE: CC(=O)N1C(=O)C(C)(C2=CC(=O)c3ccccc3C2=O)c2ccc(Br)cc21 (stereo not drawn)
LABEL: y

---

experiment: NCI Yeast Anticancer Drug Screen. Data for the bub3 strain (AID 167); details: S. cerevisiae bub3 mutant strain, at 50.0 µM, hits give high values
Compounds without any hit were thinned out: in the full panel of roughly 79,000, 15% have a hit.
MEASURED ATTRIBUTE: growth inhibition (%)

COMPOUND: NS(=O)(=O)c1ccc(NC(=O)Nc2ccc(Cl)cc2[N+](=O)[O-])cc1
UNIT: %
VALUE MEASURED: 29.9

COMPOUND: Cc1ccc(S(=O)(=O)c2cc3ccccc3oc2=O)cc1
UNIT: %
VALUE MEASURED: -11.2

COMPOUND: O=C1CC(NC(=O)C(F)(F)F)c2c(Br)sc(N3CCNCC3)c21 (stereo not drawn)
UNIT: %
VALUE MEASURED: -2.65

COMPOUND: Cc1cccc(Cl)c1NC(=O)c1cccc([N+](=O)[O-])c1
UNIT: %
VALUE MEASURED: 32.4

COMPOUND: Cc1ccc(-c2nn[nH]n2)cc1[N+](=O)[O-]
UNIT: %
VALUE MEASURED: -21.9

COMPOUND: O=C(O)c1ccc(NC(=S)NC(=O)c2cccc([N+](=O)[O-])c2)cc1
UNIT: %
VALUE MEASURED: 23.6

COMPOUND: CC(C)(C)OC(=O)N1CCCC1C(=O)Oc1ccc([N+](=O)[O-])cc1 (stereo not drawn)
UNIT: %
VALUE MEASURED: 6.25

COMPOUND: Cc1c(C(=O)O)n2cnnc2c2ccccc12
UNIT: %
VALUE MEASURED: -15.8

COMPOUND: CC(C)c1ccc(C=O)cc1
UNIT: %
VALUE MEASURED: -9.15

COMPOUND: O=C(O)c1ccccc1SC(Sc1ccccc1C(=O)O)c1ccc2c(c1)OCO2
UNIT: %
VALUE MEASURED: 33.6

COMPOUND: CC(N)(Cc1c[nH]c2ccccc12)C(=O)O (stereo not drawn)
UNIT: %
VALUE MEASURED: -15.8

COMPOUND: CCOC(=O)c1ccc(C(=O)OCC)n1-c1cc2cc(c1)CSCc1cc(cc(-n3c(C(=O)OCC)ccc3C(=O)OCC)c1)CSC2
UNIT: %
VALUE MEASURED: -13.8

COMPOUND: COCC12CC(CC1=O)C1C2ON2c3ccccc3C(=O)C12c1ccccc1 (stereo not drawn)
UNIT: %
VALUE MEASURED: 26.9

COMPOUND: NS(=O)(=O)c1cc(Br)ccc1Br
UNIT: %
VALUE MEASURED: 17.6

COMPOUND: OC(COc1ccccc1)COc1ccccc1
UNIT: %
VALUE MEASURED: 8.1

COMPOUND: CCc1c(C)nc2cc(-c3cc(C)n4c(=O)c(CC)c(C)nc4c3)cc(C)n2c1=O
UNIT: %
VALUE MEASURED: 3.2

COMPOUND: CCN(CC)CCC1CCCCN1CC(=O)N1c2cc(Cl)ccc2NC(=O)CC1C (stereo not drawn)
UNIT: %
VALUE MEASURED: 1.3

COMPOUND: Cc1ccc(N=c2cc(-c3ccccc3)oc3ccccc23)cc1
UNIT: %
VALUE MEASURED: 12.7

COMPOUND: CSc1ccc(NC(=O)SCc2ccccc2)cc1
UNIT: %
VALUE MEASURED: 15.9

COMPOUND: NC1=NC(=O)C(CC(=O)Nc2ccc([N+](=O)[O-])cc2[N+](=O)[O-])S1 (stereo not drawn)
UNIT: %
VALUE MEASURED: 2

COMPOUND: O=C(NCCc1c[nH]c2ccccc12)C(F)(F)F
UNIT: %
VALUE MEASURED: 29.2

COMPOUND: COc1ccc(C2=Nc3c(nc(SC)[nH]c3=O)NC(c3ccccc3)C2)cc1 (stereo not drawn)
UNIT: %
VALUE MEASURED: 28.3

COMPOUND: O=C(O)c1cccn1-c1ccccc1
UNIT: %
VALUE MEASURED: -10.2
